Taken from patent US20130190407A1.

target: osteoclast calcium receptor (Rattus norvegicus); experiment: [Ca2+]i (indo-1) in single rat osteoclasts; details: Table 6; rat osteoclasts, indo-1
Sequence (P48442 20-1079): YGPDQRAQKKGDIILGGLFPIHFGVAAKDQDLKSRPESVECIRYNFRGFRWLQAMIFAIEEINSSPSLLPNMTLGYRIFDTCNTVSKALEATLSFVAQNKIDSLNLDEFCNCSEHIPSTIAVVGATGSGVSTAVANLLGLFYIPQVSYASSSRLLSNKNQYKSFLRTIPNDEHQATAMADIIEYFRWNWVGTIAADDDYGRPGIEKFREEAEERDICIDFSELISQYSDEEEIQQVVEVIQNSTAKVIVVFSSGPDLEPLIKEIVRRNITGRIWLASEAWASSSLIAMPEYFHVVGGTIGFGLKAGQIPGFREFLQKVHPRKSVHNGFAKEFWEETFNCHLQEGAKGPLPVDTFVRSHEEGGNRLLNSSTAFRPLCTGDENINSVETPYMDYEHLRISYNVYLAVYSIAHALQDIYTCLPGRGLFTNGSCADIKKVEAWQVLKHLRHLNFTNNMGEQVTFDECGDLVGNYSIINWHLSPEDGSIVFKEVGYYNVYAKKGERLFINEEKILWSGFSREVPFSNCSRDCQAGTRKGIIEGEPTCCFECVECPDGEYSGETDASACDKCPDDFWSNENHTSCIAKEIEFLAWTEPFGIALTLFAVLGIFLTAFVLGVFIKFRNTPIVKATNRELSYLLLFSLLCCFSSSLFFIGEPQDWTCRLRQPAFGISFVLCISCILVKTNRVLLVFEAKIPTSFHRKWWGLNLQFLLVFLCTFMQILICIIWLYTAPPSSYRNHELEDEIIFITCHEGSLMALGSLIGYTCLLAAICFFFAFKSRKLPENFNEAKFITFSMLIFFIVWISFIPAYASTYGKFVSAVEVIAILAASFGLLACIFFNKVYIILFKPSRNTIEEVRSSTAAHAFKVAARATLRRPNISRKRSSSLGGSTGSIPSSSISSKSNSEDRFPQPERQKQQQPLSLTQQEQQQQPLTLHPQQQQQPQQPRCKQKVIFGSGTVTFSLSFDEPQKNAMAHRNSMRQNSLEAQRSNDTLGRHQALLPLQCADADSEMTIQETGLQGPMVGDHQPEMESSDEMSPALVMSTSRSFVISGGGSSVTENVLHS
pEC50: −log10 of the molar value.
PROPERTY MEASURED: pEC50

NCCCNCCCCNCCCNCCCNCCCNC(=O)Cc1c[nH]c2ccccc12: < 3.52

* * *

Listed below: EC50 values for each entry.
molecular target: parathyroid cell calcium receptor (Bos taurus); test: Mobilization of intracellular Ca2+ ([Ca2+]i, fura-2) in bovine parathyroid cells; assay type: cell-based; parameters: Parathyroid glands were obtained from freshly slaughtered calves (12-15 weeks old); endogenous in cells; host or cells: dissociated primary bovine (calf) parathyroid cells; details: Table 8 (arylalkylamine calcimimetics); parathyroid cell calcium receptor in vitro; read-out: EC50
Sequence (P35384 20-1085): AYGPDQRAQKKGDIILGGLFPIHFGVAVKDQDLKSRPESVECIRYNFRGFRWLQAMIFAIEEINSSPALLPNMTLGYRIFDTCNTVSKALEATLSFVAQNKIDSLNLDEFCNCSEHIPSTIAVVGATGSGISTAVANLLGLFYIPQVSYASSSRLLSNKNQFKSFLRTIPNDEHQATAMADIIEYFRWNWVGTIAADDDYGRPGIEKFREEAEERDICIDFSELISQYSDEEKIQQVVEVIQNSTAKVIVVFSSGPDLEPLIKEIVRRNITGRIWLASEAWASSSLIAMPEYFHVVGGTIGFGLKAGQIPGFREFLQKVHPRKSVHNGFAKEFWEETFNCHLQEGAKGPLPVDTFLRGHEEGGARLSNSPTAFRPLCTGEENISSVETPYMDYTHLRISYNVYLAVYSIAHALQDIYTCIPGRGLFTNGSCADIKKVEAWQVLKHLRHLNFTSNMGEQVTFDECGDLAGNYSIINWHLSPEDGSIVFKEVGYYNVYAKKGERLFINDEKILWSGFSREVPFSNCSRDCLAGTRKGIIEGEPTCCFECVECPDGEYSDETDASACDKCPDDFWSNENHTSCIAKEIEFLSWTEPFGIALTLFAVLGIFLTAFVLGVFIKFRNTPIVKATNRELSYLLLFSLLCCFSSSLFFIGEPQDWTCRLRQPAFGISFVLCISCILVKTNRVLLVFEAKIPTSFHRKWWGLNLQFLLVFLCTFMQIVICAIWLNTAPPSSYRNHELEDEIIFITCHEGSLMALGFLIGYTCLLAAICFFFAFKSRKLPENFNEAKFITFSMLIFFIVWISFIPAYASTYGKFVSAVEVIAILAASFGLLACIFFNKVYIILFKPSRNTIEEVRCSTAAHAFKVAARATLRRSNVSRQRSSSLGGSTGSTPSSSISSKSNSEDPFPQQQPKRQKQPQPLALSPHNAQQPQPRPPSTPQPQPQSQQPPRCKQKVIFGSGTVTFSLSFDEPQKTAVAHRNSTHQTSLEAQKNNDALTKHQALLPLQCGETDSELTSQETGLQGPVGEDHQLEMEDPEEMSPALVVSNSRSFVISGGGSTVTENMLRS
Counter-ions that a name gives are not always drawn.
PROPERTY MEASURED: EC50 (nM)

COc1ccc([C@@H](C)N[C@H](C)c2cccc3ccccc23)cc1C [Compound 17P, hydrochloride]: 40
COc1ccc(CN[C@H](C)c2cccc3ccccc23)cc1Cl [Compound 17M, hydrochloride]: 150
COc1ccc([C@@H](C)N[C@H](C)c2cccc3ccccc23)cc1 [Compound 14U, hydrochloride]: 130
CSc1cccc(C(C)NCCCc2ccccc2)c1 (centres unmarked) [Compound 8J, hydrochloride]: 780

* * *

target: parathyroid cell calcium receptor (Bos taurus); experiment: Mobilization of intracellular Ca2+ ([Ca2+]i, fura-2) in bovine parathyroid cells; assay type: cell-based; design: Parathyroid glands were obtained from freshly slaughtered calves (12-15 weeks old); endogenous in cells; host or cells: dissociated primary bovine (calf) parathyroid cells; conditions: EC50 for mobilization of intracellular Ca2+; bovine parathyroid cells
pEC50: −log10 of the molar value. Counter-ions that a name gives are not always drawn.
// reported pEC50 per item
PROPERTY MEASURED: pEC50

CSc1cccc(C(C)NCCCc2ccccc2)c1 (centres unmarked) [Compound 8J, hydrochloride]: > 5.30
CC(C)c1ccc(CN[C@H](C)c2cccc3ccccc23)cc1 [Compound 11X, hydrochloride]: > 5.30
COc1ccc(CN[C@H](C)c2cccc3ccccc23)cc1Cl [Compound 17M, hydrochloride]: > 5.30
COc1ccc([C@@H](C)N[C@H](C)c2cccc3ccccc23)cc1C [Compound 17P, hydrochloride]: > 5.30
COc1cccc([C@@H](C)NCCCc2ccccc2Cl)c1: > 5.30
COc1ccc([C@@H](C)N[C@H](C)c2cccc3ccccc23)cc1 [Compound 14U, hydrochloride]: > 5.30
C[C@@H](NCCCc1ccccc1Cl)c1cccc2ccccc12 [Compound 12Z, hydrochloride]: > 5.30
COc1cccc([C@@H](C)NCCCc2ccccc2)c1 (single isomer, unassigned): > 5.30

* * *

target: bovine parathyroid cell calcium receptor (Bos taurus); construct: isolation of a single clone (BoPCaR 1) with a cDNA insert of 5.3 kb; test: Cl- current in Xenopus oocytes injected with BoPCaR 1; conditions: 0.3 or 1 mM extracellular Ca2+; read-out: EC50 for increases in Cl- current
PROPERTY MEASURED: EC50

COc1cccc([C@@H](C)NCCCc2ccccc2Cl)c1: ~3 µM
